experiment: rat pharmacokinetic studies; conditions: rat, IV, 2 mg/kg; mean, n = 3
PEG = not defined here
The entries below are paired with their reported Vss.
Measured metric: Vss (L/kg)

- Substance: "SEQ ID NO: 40: double glutamine analog PEGylated through amine linkage (Ac-WVTHQLAGLLSQSGGVVRK(PEG)NFVPTDVGPFAF-NH2; reading uncertain)"
  Measured metric: "Vss"
  Unit spec: "L/kg"
  Reported: 0.496
- Substance: "SEQ ID NO: 15: 20 kDa PEG conjugate of SEQ ID NO:7 (reductive alkylation) (Ac-WVTHRLAGLLSRSGGVVRK(20 kDa PEG)NFVPTDVGPFAF-NH2)"
  Measured metric: "Vss"
  Unit spec: "L/kg"
  Reported: 0.174
- Substance: "SEQ ID NO: 32: PEGylated R11Cit, R18Cit analog (product of SEQ ID NO:31) (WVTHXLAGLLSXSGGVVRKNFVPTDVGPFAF; PEGylated; citrulline at 11 and 18; CGRP peptide; MOD_RES (1)..(1): …ON; MISC_FEATURE (5)..(5): xaa=citrulline; MISC_FEATURE (12)..(12): xaa=citrulline; MISC_FEATURE (19)..(19): PEGylated; MOD_RES (31)..(31): AMIDATION)"
  Measured metric: "Vss"
  Unit spec: "L/kg"
  Reported: 0.204
- Substance: "SEQ ID NO: 26: PEGylated double homoarginine analog (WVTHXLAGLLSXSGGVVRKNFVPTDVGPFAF; PEGylated; homoarginine residues; CGRP peptide; MOD_RES (1)..(1): …ON; MISC_FEATURE (5)..(5): xaa=homoarginine; MISC_FEATURE (12)..(12): xaa=homoarginine; MISC_FEATURE (19)..(19): PEGylated; MOD_RES (31)..(31): AMIDATION)"
  Measured metric: "Vss"
  Unit spec: "L/kg"
  Reported: 0.083

---

assay: rat pharmacokinetic studies; details: rat, SC, 2 mg/kg; mean, n = 3
PEG = not defined here

- Substance: "SEQ ID NO: 32: PEGylated R11Cit, R18Cit analog (product of SEQ ID NO:31) (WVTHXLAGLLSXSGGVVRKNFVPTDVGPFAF; PEGylated; citrulline at 11 and 18; CGRP peptide; MOD_RES (1)..(1): …ON; MISC_FEATURE (5)..(5): xaa=citrulline; MISC_FEATURE (12)..(12): xaa=citrulline; MISC_FEATURE (19)..(19): PEGylated; MOD_RES (31)..(31): AMIDATION)"
  AUC0-inf: "19046 ng·h/mL"
- Substance: "SEQ ID NO: 15: 20 kDa PEG conjugate of SEQ ID NO:7 (reductive alkylation) (Ac-WVTHRLAGLLSRSGGVVRK(20 kDa PEG)NFVPTDVGPFAF-NH2)"
  AUC0-inf: "1542 ng·h/mL"
- Substance: "SEQ ID NO: 40: double glutamine analog PEGylated through amine linkage (Ac-WVTHQLAGLLSQSGGVVRK(PEG)NFVPTDVGPFAF-NH2; reading uncertain)"
  AUC0-inf: "1223 ng·h/mL"
- Substance: "SEQ ID NO: 26: PEGylated double homoarginine analog (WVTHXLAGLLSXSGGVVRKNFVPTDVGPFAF; PEGylated; homoarginine residues; CGRP peptide; MOD_RES (1)..(1): …ON; MISC_FEATURE (5)..(5): xaa=homoarginine; MISC_FEATURE (12)..(12): xaa=homoarginine; MISC_FEATURE (19)..(19): PEGylated; MOD_RES (31)..(31): AMIDATION)"
  AUC0-inf: "1204 ng·h/mL"

---

target: CGRP1 receptor (Homo sapiens, UniProt O60894+Q16602); construct: SK-N-MC cells express CRLR and RAMP1, which form CGRP1 receptor; endogenous in cells; host or cells: SK-N-MC human neuroblastoma cells; assay: in vitro CGRP1 receptor mediated cAMP assay in SK-N-MC cells; type: cell-based; conditions: Table 3; unconjugated CGRP peptide analogs; n = 2-4; read-out: IC50
Sequence (Q16602 23-461): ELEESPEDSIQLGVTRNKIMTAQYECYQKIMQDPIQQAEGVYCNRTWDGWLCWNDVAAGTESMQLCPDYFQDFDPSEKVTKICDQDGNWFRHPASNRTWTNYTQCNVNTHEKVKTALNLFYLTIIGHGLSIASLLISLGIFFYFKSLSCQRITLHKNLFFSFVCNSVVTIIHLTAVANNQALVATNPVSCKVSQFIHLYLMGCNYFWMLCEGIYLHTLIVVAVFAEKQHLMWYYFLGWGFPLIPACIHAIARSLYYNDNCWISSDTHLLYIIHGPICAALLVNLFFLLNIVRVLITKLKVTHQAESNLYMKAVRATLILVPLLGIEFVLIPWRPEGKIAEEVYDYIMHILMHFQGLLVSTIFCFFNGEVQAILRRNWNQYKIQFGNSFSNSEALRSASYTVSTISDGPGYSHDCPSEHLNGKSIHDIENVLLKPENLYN
Sequence (O60894 27-148): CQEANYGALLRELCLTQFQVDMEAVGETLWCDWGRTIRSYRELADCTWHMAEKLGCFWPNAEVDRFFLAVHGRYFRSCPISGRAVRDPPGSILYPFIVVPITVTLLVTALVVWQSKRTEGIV
Measured metric: IC50 (nM)

- Substance: "Ac-WVTHRLAGLLSRSGGVVKNNFVPTDVGPFAF-NH2 [compound 5]"
  Target or test system: "CGRP1 receptor (Homo sapiens, UniProt O60894+Q16602)"
  Unit spec: "nM"
  Reported: 0.14
- Substance: "Ac-WVTHRLAGLLSRSGGVVCNNFVPTDVGPFAF-NH2 [compound 9]"
  Target or test system: "CGRP1 receptor (Homo sapiens, UniProt O60894+Q16602)"
  Unit spec: "nM"
  Reported: 2.15
- Substance: "H-CGGGGGGGVTHRLAGLLSRSGGVVKNNFVPTDVGPFAF-NH2 [compound 3]"
  Target or test system: "CGRP1 receptor (Homo sapiens, UniProt O60894+Q16602)"
  Unit spec: "nM"
  Reported: 0.72

---

experiment: in vitro stability in 10% rat plasma, LC-MS/MS; type: in vitro ADME; settings: room temperature, 100 ng/ml, 3 h
Documented remaining at 3 h, 100 ng/ml across a set of substances
Measured metric: remaining at 3 h, 100 ng/ml (%)

- Substance: "Ac-WVTHRLAGLLSQSGGVVRKNFVPTDVGPFAF-NH2 [compound 37]"
  Reported: 4.7
- Substance: "Ac-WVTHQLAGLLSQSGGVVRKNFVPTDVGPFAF-NH2 [compound 39]"
  Reported: 20.4

---

Recorded AUC0-inf values for a group of substances are listed next.
test: rat pharmacokinetic studies; conditions: rat, IV, 2 mg/kg; mean, n = 3
PEG = not defined here
Measured metric: AUC0-inf (ng·h/mL)

- Substance: "SEQ ID NO: 40: double glutamine analog PEGylated through amine linkage (Ac-WVTHQLAGLLSQSGGVVRK(PEG)NFVPTDVGPFAF-NH2; reading uncertain)"
  Measured metric: "AUC0-inf"
  Unit spec: "ng·h/mL"
  Reported: 10666
- Substance: "SEQ ID NO: 15: 20 kDa PEG conjugate of SEQ ID NO:7 (reductive alkylation) (Ac-WVTHRLAGLLSRSGGVVRK(20 kDa PEG)NFVPTDVGPFAF-NH2)"
  Measured metric: "AUC0-inf"
  Unit spec: "ng·h/mL"
  Reported: 12959
- Substance: "SEQ ID NO: 32: PEGylated R11Cit, R18Cit analog (product of SEQ ID NO:31) (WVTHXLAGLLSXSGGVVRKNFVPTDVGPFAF; PEGylated; citrulline at 11 and 18; CGRP peptide; MOD_RES (1)..(1): …ON; MISC_FEATURE (5)..(5): xaa=citrulline; MISC_FEATURE (12)..(12): xaa=citrulline; MISC_FEATURE (19)..(19): PEGylated; MOD_RES (31)..(31): AMIDATION)"
  Measured metric: "AUC0-inf"
  Unit spec: "ng·h/mL"
  Reported: 40431
- Substance: "SEQ ID NO: 26: PEGylated double homoarginine analog (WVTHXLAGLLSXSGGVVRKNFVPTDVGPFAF; PEGylated; homoarginine residues; CGRP peptide; MOD_RES (1)..(1): …ON; MISC_FEATURE (5)..(5): xaa=homoarginine; MISC_FEATURE (12)..(12): xaa=homoarginine; MISC_FEATURE (19)..(19): PEGylated; MOD_RES (31)..(31): AMIDATION)"
  Measured metric: "AUC0-inf"
  Unit spec: "ng·h/mL"
  Reported: 24555

---

experiment: rat pharmacokinetic studies; details: rat, SC, 2 mg/kg; mean, n = 3
PEG = not defined here
Below: a set of entries, each annotated with reported t1/2.

- Substance: "SEQ ID NO: 32: PEGylated R11Cit, R18Cit analog (product of SEQ ID NO:31) (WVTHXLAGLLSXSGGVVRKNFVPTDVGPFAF; PEGylated; citrulline at 11 and 18; CGRP peptide; MOD_RES (1)..(1): …ON; MISC_FEATURE (5)..(5): xaa=citrulline; MISC_FEATURE (12)..(12): xaa=citrulline; MISC_FEATURE (19)..(19): PEGylated; MOD_RES (31)..(31): AMIDATION)"
  t1/2: "29.98 h"
- Substance: "SEQ ID NO: 40: double glutamine analog PEGylated through amine linkage (Ac-WVTHQLAGLLSQSGGVVRK(PEG)NFVPTDVGPFAF-NH2; reading uncertain)"
  t1/2: "27.15 h"
- Substance: "SEQ ID NO: 15: 20 kDa PEG conjugate of SEQ ID NO:7 (reductive alkylation) (Ac-WVTHRLAGLLSRSGGVVRK(20 kDa PEG)NFVPTDVGPFAF-NH2)"
  t1/2: "22.37 h"
- Substance: "SEQ ID NO: 26: PEGylated double homoarginine analog (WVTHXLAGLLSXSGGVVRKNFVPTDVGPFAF; PEGylated; homoarginine residues; CGRP peptide; MOD_RES (1)..(1): …ON; MISC_FEATURE (5)..(5): xaa=homoarginine; MISC_FEATURE (12)..(12): xaa=homoarginine; MISC_FEATURE (19)..(19): PEGylated; MOD_RES (31)..(31): AMIDATION)"
  t1/2: "26.17 h"

Origin of measurements: patent US8168592B2
